- Read-out: Matrix Metallopeptidase 1 (MMP1), MMP1 (gene 4312)
- protocolDescription: BSK_BE3C_MMP1: BioMAP Diversity Plus: BE3C Assay for Matrix Metallopeptidase 1 (MMP1) Biomarker Activity (AID 2283024)
- conditionsUsed: primary human bronchial epithelial cells; actives raise or lower the signal
- Description: BSK_BE3C is a cell-based, multiplexed-readout assay that uses bronchial epithelial cell, a human lung primary cell, with measurements taken at 24 hours after chemical dosing in a 96-well plate.BSK_BE3C_MMP1 is an assay component measured in the BSK_BE3C assay. It measures MMP-1 antibody related to regulation of gene expression using ELISA technology.Data from the assay component BSK_BE3C_MMP1 was analyzed into 1 assay endpoint. […]
Activity calls are given as the source filed them. How the source made its calls: active means hit-call score of the fitted dose curve at least 0.9, where 1 is the maximum; inactive means score below 0.9.
Outcome (select one): active, inactive

CC(=O)Nc1ccc(C(=O)CCl)cc1 | active

Task item: Hey, what did the test say about COc1ccc(OC)c(N=Nc2c(O)ccc3ccccc23)c1 ?
Reply: inactive

Task item: Entry CN(C)C(=S)SC(=S)N(C)C : call = ?
Reply: inactive

Task item: State the result this test recorded for CCCCCCC(CO)CCCC (centres undefined) .
Reply: inactive

Task item: Per the assay record, what outcome was assigned to Oc1c(Cl)cc(Cl)c(Cl)c1Cc1c(O)c(Cl)cc(Cl)c1Cl ?
Reply: active

* * *

- protocolDescription: ATG_PXRE_CIS: Attagene CIS-FACTORIAL HepG2 Assay for human Pregnane X Receptor Element (PXRE) (AID 2282957)
- conditionsUsed: HepG2 Attagene CIS-FACTORIAL PXRE reporter, mRNA; actives raise or lower the signal
Calls of active or inactive are those of the source. Rule for the calls: active = hit-call score of the fitted dose curve at least 0.9, where 1 is the maximum; inactive = score below 0.9.
Outcome field: choose from active, inactive

Previously resolved entries follow.
CC=Cc1ccc(OCC)c(O)c1 | active
O=C(Nc1ccc2c(c1)Cc1ccccc1-2)C(F)(F)F | active

Task item: For this compound, state the assay outcome: C=C1C[C@]23C[C@@]1(O)CC[C@H]2[C@@]12C=C[C@H](O)[C@@](C)(C(=O)O1)[C@H]2[C@@H]3C(=O)O
Reply: inactive

Task item: Just curious, what result did O=CN1CCOCC1 get here?
Reply: inactive

Task item: What did the test return for CCOC(=O)CC(C)O (configuration not stated) ?
Reply: inactive

Task item: In this assay, the call recorded for CC(=O)Nc1ccc(C(=O)CCl)cc1 was what?
Reply: inactive

Task item: Outcome? C[C@@H]1CCN(C(=O)[C@H](CCCN=C(N)N)NS(=O)(=O)c2cccc3c2NC[C@H](C)C3)[C@@H](C(=O)O)C1
Reply: inactive

Task item: Which outcome was entered for the compound CCCCCCOCCOCCO in this test?
Reply: inactive

Task item: Called result for Cc1c(C2(c3cc(Br)c(O)c(Br)c3C)OS(=O)(=O)c3ccccc32)cc(Br)c(O)c1Br
Reply: active

Task item: For this compound, state the assay outcome: COCCOC(=O)c1ccccc1C(=O)OCCOC
Reply: active

Task item: Outcome logged for OCCCCC(O)CO (configuration not stated) in this assay:
Reply: inactive

Task item: GET /call?item= CCCCCCCCCCCCCCCC(=O)OC/C=C(C)/C=C/C=C(C)/C=C/C1=C(C)CCCC1(C)C returns the recorded outcome of this test.
Reply: active

Task item: Hi, do you know how C=CCOC(=O)CCCCCC came out in this test?
Reply: inactive

Task item: Returns: the outcome recorded for CCc1ncc(C)[nH]1 in this assay.
Reply: inactive

* * *

- assayTarget: Nuclear respiratory factor 1 (Homo sapiens) (UniProt Q16656)
- Sequence (Q16656 whole entry, looked up): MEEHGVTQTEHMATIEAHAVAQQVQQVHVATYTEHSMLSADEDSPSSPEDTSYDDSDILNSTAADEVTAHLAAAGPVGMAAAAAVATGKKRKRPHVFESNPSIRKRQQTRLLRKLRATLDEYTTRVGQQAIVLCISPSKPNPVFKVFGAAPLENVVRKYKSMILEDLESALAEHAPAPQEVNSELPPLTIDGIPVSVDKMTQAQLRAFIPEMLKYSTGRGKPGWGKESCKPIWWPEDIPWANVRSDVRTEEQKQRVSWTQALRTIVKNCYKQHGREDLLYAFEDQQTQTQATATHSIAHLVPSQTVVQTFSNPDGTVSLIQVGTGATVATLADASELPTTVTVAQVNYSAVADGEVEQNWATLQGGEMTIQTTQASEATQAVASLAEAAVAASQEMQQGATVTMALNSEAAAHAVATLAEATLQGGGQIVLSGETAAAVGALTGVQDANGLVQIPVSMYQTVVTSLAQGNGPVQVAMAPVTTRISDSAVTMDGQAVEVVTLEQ
- protocolDescription: ATG_NRF1_CIS: Attagene CIS-FACTORIAL HepG2 Assay for human Nuclear Respiratory Factor 1 (NRF1) Orphan Gene (AID 2282987)
- conditionsUsed: HepG2 NRF1 cis-element reporter, Attagene multiplex; actives raise or lower the signal
Activity calls are given as the source filed them. The calls were made as follows: active = hit-call score of the fitted dose curve at least 0.9, where 1 is the maximum; inactive = score below 0.9.
Please answer using one outcome listed in active, inactive

// below: answered compounds
C[N+](C)(C)CCCCCC[N+](C)(C)C | inactive
OCCCCC(O)CO (stereo not drawn) | inactive
CN(C)C(=S)SC(=S)N(C)C | inactive
C=CCN(CC=C)CC=C | inactive
CC[N+](C)(CC)CC | inactive

Next compound, please.
Task item: Outcome logged for CCCCCCCCCC(C)C=O (stereo not drawn) in this assay:
Reply: inactive

* * *

- assayTarget: Paired box protein Pax-6 (Homo sapiens) (UniProt P26367)
- Sequence (P26367 whole entry, looked up): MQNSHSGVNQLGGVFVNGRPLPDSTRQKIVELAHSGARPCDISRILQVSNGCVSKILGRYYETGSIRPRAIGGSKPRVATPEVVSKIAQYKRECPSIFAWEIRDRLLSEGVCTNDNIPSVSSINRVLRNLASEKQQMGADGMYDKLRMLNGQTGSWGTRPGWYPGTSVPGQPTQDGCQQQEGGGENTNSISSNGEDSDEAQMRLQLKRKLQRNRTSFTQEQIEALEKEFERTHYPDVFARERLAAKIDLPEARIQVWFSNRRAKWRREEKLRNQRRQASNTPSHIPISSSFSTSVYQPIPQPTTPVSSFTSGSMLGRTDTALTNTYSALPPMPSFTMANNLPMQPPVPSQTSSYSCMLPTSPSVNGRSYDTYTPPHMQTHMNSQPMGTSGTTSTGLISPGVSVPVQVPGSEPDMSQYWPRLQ
- protocolDescription: ATG_Pax6_CIS: Attagene CIS-FACTORIAL HepG2 Assay for human Paired Box 6 (PAX6) (AID 2282956)
- conditionsUsed: HepG2 CIS-FACTORIAL PAX6 reporter transcription, RNA readout; actives raise or lower the signal
Calls of active or inactive are those of the source. The calls were made as follows: active = hit-call score of the fitted dose curve at least 0.9, where 1 is the maximum; inactive = score below 0.9.
Allowed answers: TRUE for active, FALSE for inactive

OCCCCC(O)CO (stereo not drawn) | FALSE
CCCCOC(=O)CCCCCCCC(=O)OCCCC | FALSE
ClC(c1ccccc1)(c1ccccc1)c1ccccc1 | FALSE
CS(C)=O | FALSE
C=C[Si]1(C)O[Si](C)(C=C)O[Si](C)(C=C)O[Si](C)(C=C)O1 (stereo not drawn) | FALSE

Task item: Could you please tell me the result logged for C=C(C)C(=O)OCC(CC)(COC(=O)C(=C)C)COC(=O)C(=C)C in this assay?
Reply: FALSE

Task item: For this compound, state the assay outcome: CCCCCCCCCCCC(=O)OC[C@@H](O)[C@H]1OC[C@H](O)[C@H]1O
Reply: FALSE

Task item: Test call for this compound, please: CCCCCCOC(=O)C(C)C
Reply: FALSE

Task item: In this assay, the call recorded for CCCCCCCCc1ccc(S(=O)(=O)O)cc1 was what?
Reply: TRUE

* * *

- protocolDescription: ACEA_ER_AUC_viability: ACEA Biosciences xCELLigence Real-Time Cell Analysis on Estrogen Receptor Agonism for Viability (AID 2283782);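 further: continuous compound exposure with impedance area under curve over 80 h; hit means loss of impedance signal meaning reduced cell growth or viability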
Inconclusive results are not listed. Activity calls are given as the source filed them. The calls were made as follows: active = hit-call score of the fitted dose curve at least 0.9, where 1 is the maximum; inconclusive = response in the unintended direction; inactive = score below 0.9.
In this exercise, the only acceptable responses are active, inactive

Study these solved cases before continuing.
NC1CCCCC1N (centres undefined) | active
CCCCCCOC(=O)CCC | inactive
CCc1cc(C(C)(C)C)c(O)c(C(C)(C)C)c1 | active

Now examine the next entry.
Task item: Hello, I am checking results. What call was entered for CC(=O)O[C@@H]1C[C@@H]2CC[C@@]1(C)C2(C)C ?
Reply: inactive

* * *

- assayTarget: Cellular tumor antigen p53 (Homo sapiens)
- protocolDescription: TOX21_p53_BLA_p3_ratio: Tox21 HCT-116 p53 Agonism Beta-lactamase Assay, Ratio, Phase 3 (AID 2283596)
Records with an inconclusive call do not appear. Activity calls are given as the source filed them. Rule for the calls: active = hit-call score of the fitted dose curve at least 0.9, where 1 is the maximum; inconclusive = response in the unintended direction; inactive = score below 0.9.
endpointName: outcome

CS(C)=O | inactive
Cc1[nH]c(=O)c(C#N)cc1-c1ccncc1 | inactive
CC(CN=Cc1ccccc1O)N=Cc1ccccc1O (stereo not drawn) | inactive

* * *

- protocolDescription: ATG_SREBP_CIS: Attagene CIS-FACTORIAL HepG2 Assay for human Sterol Regulatory Element Binding (SREBP) (AID 2282962)
- conditionsUsed: HepG2 Attagene cis-factorial SREBP reporter, mRNA; actives raise or lower the signal
Activity calls are given as the source filed them. Rule for the calls: active = hit-call score of the fitted dose curve at least 0.9, where 1 is the maximum; inactive = score below 0.9.
Select the correct class. Options are label 1 = active, label 0 = inactive and nothing else.

CCCC(C)C(O)CC (configuration not stated) | label 0
CCOc1ccccc1O | label 0
CC1(C)O[C@@H]2[C@@H](CO[C@@]3(COS(N)(=O)=O)OC(C)(C)O[C@@H]23)O1 | label 0

Task item: # lookup: test call for CCCCCCCC(=O)OCC(O)CO (configuration not stated)
Reply: label 0

Task item: Per the assay record, what outcome was assigned to CC(=O)O[C@@H]1C[C@@H]2CC[C@@]1(C)C2(C)C ?
Reply: label 0

Task item: Hey, what did the test say about CC(O)C1CCCCC1 (configuration not stated) ?
Reply: label 0

Task item: How was COC(=O)Nc1ccc(Cl)c(Cl)c1 classified in this test?
Reply: label 0

Task item: Check the results log: what was the call for CC1C2CC(CC2C2CCCC(O)C2)C1(C)C (configuration not stated) ?
Reply: label 0

Task item: Please let me know the test result on file for CCCCC(CC)(CO)CO .
Reply: label 0

Task item: Record lookup: outcome of this test for c1ccc(Oc2ccccc2)cc1 ?
Reply: label 0

Task item: Lab log entry: CCCCCCCCSCCO — outcome as called in the assay?
Reply: label 0

Task item: Which outcome did this test record for the compound CCC(=O)OCCOc1ccccc1 ?
Reply: label 0

Task item: Lab log entry: CCOCCOCCOCC — outcome as called in the assay?
Reply: label 0

Task item: Could you kindly confirm the outcome this assay logged for NC(=S)NNC(N)=S ?
Reply: label 0

Task item: Assay outcome for C=Cc1ccc(C(C)(C)C)cc1 : what was it?
Reply: label 0

* * *

- protocolDescription: ATG_ISRE_CIS: Attagene CIS-FACTORIAL HepG2 Assay for human Interferon Regulatory Factor 1 (IRF1) binding to an Interferon-Stimulated Response Element (ISRE) (AID 2282948)
- conditionsUsed: HepG2 ISRE cis-reporter (Attagene), mRNA transcription readout; actives raise or lower the signal
Active and inactive are the calls of the source. Rule for the calls: active = hit-call score of the fitted dose curve at least 0.9, where 1 is the maximum; inactive = score below 0.9.
Lab note: assign the record to one of active, inactive

Check out these entries, answers already filled in.
CCC(=O)OCCOc1ccccc1 | inactive
CN1C(=O)c2ccccc2C1=O | inactive
CCCCCCCCCCCCCC(=O)OCC(O)CO (centres undefined) | inactive
C=CC(=C)CCCC(C)(C)OC(C)=O | inactive
Cc1ccc2c(c1)C(=O)OC2=O | inactive

Task item: Query: recorded result category for CCCCCCCCCCCC(=O)OCC(O)CO (centres undefined) in this test
Reply: inactive

Task item: What classification did CCc1cc(C(C)(C)C)c(O)c(C(C)(C)C)c1 end up with in this test?
Reply: inactive

Task item: Could you please tell me the result logged for Oc1ccc2cc(SSc3ccc4cc(O)ccc4c3)ccc2c1 in this assay?
Reply: active

Task item: Could you check what this test reported for Nc1ccc2c(O)cc(S(=O)(=O)O)cc2c1 ?
Reply: inactive

Task item: So what was the verdict on OCCCCC(O)CO (centres undefined) in this test?
Reply: inactive

These measurements were taken from PubChem BioAssay (EPA / NIEHS).
